Cited source: patent US20260184669A1

# test summary: Stability of mRNA-LNPs according to storage temperature and duration
# Assay type: physicochemical
# recorded conditions: fLuc mRNA-LNP stored at 4° C., day 30
metric: Normalized EE % D-30 (%)
Numbers only, in %.

Below are worked cases with known answers.
CCCCCCCCCCCOC(=O)CCCCCN(CCCCCCCC(=O)OC(CCCCCCCC)CCCCCCCC)CC(O)CCCCNC(=O)c1cnc(O)n1C (stereo not drawn); 87.5
CCCCCCCCCCCOC(=O)CCCCCN(CCCCCCCC(=O)OC(CCCCCCCC)CCCCCCCC)CC(O)CCCCNC(=O)c1nccn1C (stereo not drawn); 86.6
CCCCCCCCCCCOC(=O)CCCCCN(CCCCCCCC(=O)OC(CCCCCCCC)CCCCCCCC)CC(O)CCCCNC(=O)c1c[nH]c(O)n1 (stereo not drawn); 88.6

Please report Normalized EE % D-30 for every entry that follows.
1. CCCCCCCCCCCOC(=O)CCCCCN(CCCCCCCC(=O)OC(CCCCCCCC)CCCCCCCC)CC(O)CCCCNC(=O)c1cccn1C (stereo not drawn)
2. CCCCC/C=C\C/C=C\CCCCCCCCC(CCCCCCCC/C=C\C/C=C\CCCCC)OC(=O)CCCN(C)C [MC3, DLin-MC3-DMA, reference compound]
3. CCCCCCCCCCCOC(=O)CCCCCN(CCCCCCCC(=O)OC(CCCCCCCC)CCCCCCCC)CC(O)CCCCNC(=O)c1ccn(C)c1 (stereo not drawn)

Ans.
[87.6, 90.4, 87.2]

###

# test summary: Stability of mRNA-LNPs according to storage temperature and duration
# Format: physicochemical
# recorded conditions: fLuc mRNA-LNP stored at 4° C., day 30
metric: PDI D-30
Numbers only.

Previously resolved entries follow.
CCCCCCCCCCCOC(=O)CCCCCN(CCCCCCCC(=O)OC(CCCCCCCC)CCCCCCCC)CC(O)CCCCNC(=O)c1c[nH]cn1 (stereo not drawn); 0.079
CCCCCCCCCCCOC(=O)CCCCCN(CCCCCCCC(=O)OC(CCCCCCCC)CCCCCCCC)CC(O)CCCCNC(=O)c1c[nH]c(O)n1 (stereo not drawn); 0.127
CCCCCCCCCCCOC(=O)CCCCCN(CCCCCCCC(=O)OC(CCCCCCCC)CCCCCCCC)CC(O)CCCCNC(=O)c1cc[nH]c1 (stereo not drawn); 0.081
CCCCCCCCCCCOC(=O)CCCCCN(CCCCCCCC(=O)OC(CCCCCCCC)CCCCCCCC)CC(O)CCCCNC(=O)c1cccn1C (stereo not drawn); 0.106
CCCCCCCCCCCOC(=O)CCCCCN(CCCCCCCC(=O)OC(CCCCCCCC)CCCCCCCC)CC(O)CCCCNC(=O)c1cn(C)cn1 (stereo not drawn); 0.280
CCCCCCCCCCCOC(=O)CCCCCN(CCCCCCCC(=O)OC(CCCCCCCC)CCCCCCCC)CC(O)CCCCNC(=O)c1cnc(O)n1C (stereo not drawn); 0.044

Provide PDI D-30 for all items below, preserving their order.
1. CCCCCCCCCCCOC(=O)CCCCCN(CCCCCCCC(=O)OC(CCCCCCCC)CCCCCCCC)CC(O)CCCCNC(=O)c1ccn(C)c1 (stereo not drawn)
2. CCCCCCCCCCCOC(=O)CCCCCN(CCCCCCCC(=O)OC(CCCCCCCC)CCCCCCCC)CC(O)CCCCNC(=O)c1nccn1C (stereo not drawn)
3. CCCCCCCCCCCOC(=O)CCCCCN(CCCCCCCC(=O)OC(CCCCCCCC)CCCCCCCC)CC(O)CCCCNC(=O)c1cncn1C (stereo not drawn)

Ans.
1: 0.071; 2: 0.076; 3: 0.086

# map each compound to its PDI D-30
1. CCCCCCCCCCCOC(=O)CCCCCN(CCCCCCCC(=O)OC(CCCCCCCC)CCCCCCCC)CC(O)CCCCNC(=O)c1ncc[nH]1 (stereo not drawn)
2. CCCCCCCCCCCOC(=O)CCCCCN(CCCCCCCC(=O)OC(CCCCCCCC)CCCCCCCC)CC(O)CCCCNC(=O)c1ccc[nH]1 (stereo not drawn)

Ans.
0.113
0.069

Qu. I am curious: what PDI D-30 value has been reported for CCCCC/C=C\C/C=C\CCCCCCCCC(CCCCCCCC/C=C\C/C=C\CCCCC)OC(=O)CCCN(C)C [MC3, DLin-MC3-DMA, reference compound] ?
Ans. 0.142

###

I'd be grateful if you could share measured Size (nm) D-7 for these entries.
# test summary: Stability of mRNA-LNPs according to storage temperature and duration
# Type: physicochemical
# recorded conditions: fLuc mRNA-LNP stored at 4° C., day 7
Field: value (include unit after the number)

Required: Size (nm) D-7, one value per compound below.
1. CCCCCCCCCCCOC(=O)CCCCCN(CCCCCCCC(=O)OC(CCCCCCCC)CCCCCCCC)CC(O)CCCCNC(=O)c1cccn1C (stereo not shown) [Compound 18]
2. CCCCCCCCCCCOC(=O)CCCCCN(CCCCCCCC(=O)OC(CCCCCCCC)CCCCCCCC)CC(O)CCCCNC(=O)c1cncn1C (stereo not shown) [Compound 38]

Ans.
1. 121.4 nm
2. 141.1 nm

Need Size (nm) D-7 for each of these compounds.
1. CCCCCCCCCCCOC(=O)CCCCCN(CCCCCCCC(=O)OC(CCCCCCCC)CCCCCCCC)CC(O)CCCCNC(=O)c1ccn(C)c1 (stereo not shown) [Compound 19]
2. CCCCCCCCCCCOC(=O)CCCCCN(CCCCCCCC(=O)OC(CCCCCCCC)CCCCCCCC)CC(O)CCCCNC(=O)c1c[nH]cn1 (stereo not shown) [Compound 34]
3. CCCCCCCCCCCOC(=O)CCCCCN(CCCCCCCC(=O)OC(CCCCCCCC)CCCCCCCC)CC(O)CCCCNC(=O)c1ncc[nH]1 (stereo not shown) [Compound 33]

Ans.
1: 161.2 nm; 2: 121.7 nm; 3: 120.3 nm

// batch mode: one Size (nm) D-7 value per listed entry
1. CCCCCCCCCCCOC(=O)CCCCCN(CCCCCCCC(=O)OC(CCCCCCCC)CCCCCCCC)CC(O)CCCCNC(=O)c1c[nH]c(O)n1 (stereo not shown) [Compound 35]
2. CCCCCCCCCCCOC(=O)CCCCCN(CCCCCCCC(=O)OC(CCCCCCCC)CCCCCCCC)CC(O)CCCCNC(=O)c1ccc[nH]1 (stereo not shown) [Compound 16]
3. CCCCCCCCCCCOC(=O)CCCCCN(CCCCCCCC(=O)OC(CCCCCCCC)CCCCCCCC)CC(O)CCCCNC(=O)c1cn(C)cn1 (stereo not shown) [Compound 37]
4. CCCCCCCCCCCOC(=O)CCCCCN(CCCCCCCC(=O)OC(CCCCCCCC)CCCCCCCC)CC(O)CCCCNC(=O)c1c(O)ccn1C (stereo not shown) [Compound 24]

Ans.
130.3 nm
137.1 nm
123.7 nm
123.7 nm

Qu. Return reported Size (nm) D-7; argument: CCCCC/C=C\C/C=C\CCCCCCCCC(CCCCCCCC/C=C\C/C=C\CCCCC)OC(=O)CCCN(C)C [MC3, DLin-MC3-DMA, reference compound]
Ans. 128.7 nm

###

Kindly state Size (nm) D-1 for each of the entries shown.
# test summary: Stability of mRNA-LNPs according to storage temperature and duration
# Assay type: physicochemical
# recorded conditions: fLuc mRNA-LNP stored at 25° C., day 1
Numbers only, in nm.

Solved entries:
CCCCCCCCCCCOC(=O)CCCCCN(CCCCCCCC(=O)OC(CCCCCCCC)CCCCCCCC)CC(O)CCCCNC(=O)c1ccn(C)c1 (stereo not drawn) [Compound 19]; 184.7
CCCCCCCCCCCOC(=O)CCCCCN(CCCCCCCC(=O)OC(CCCCCCCC)CCCCCCCC)CC(O)CCCCNC(=O)c1ccc[nH]1 (stereo not drawn) [Compound 16]; 132.2
CCCCCCCCCCCOC(=O)CCCCCN(CCCCCCCC(=O)OC(CCCCCCCC)CCCCCCCC)CC(O)CCCCNC(=O)c1cnc(O)n1C (stereo not drawn) [Compound 40]; 106.8
CCCCC/C=C\C/C=C\CCCCCCCCC(CCCCCCCC/C=C\C/C=C\CCCCC)OC(=O)CCCN(C)C [MC3, DLin-MC3-DMA, reference compound]; 92.8
CCCCCCCCCCCOC(=O)CCCCCN(CCCCCCCC(=O)OC(CCCCCCCC)CCCCCCCC)CC(O)CCCCNC(=O)c1cc[nH]c1 (stereo not drawn) [Compound 17]; 151.2

Now take the following compound into account.
Qu. I would be grateful if you could share the reported Size (nm) D-1 for CCCCCCCCCCCOC(=O)CCCCCN(CCCCCCCC(=O)OC(CCCCCCCC)CCCCCCCC)CC(O)CCCCNC(=O)c1cncn1C (stereo not drawn) [Compound 38] .
Ans. 142.2

###

# Test system: IL-6 mRNA level in HEK-293T cells
# recorded conditions: human
Rule: fulfilled for IL-6 Average not less than 0.9, not fulfilled for anything less.

Completed entries (count: 5):
CCCCCCCCCCCOC(=O)CCCCCN(CCCCCCCC(=O)OC(CCCCCCCC)CCCCCCCC)CC(O)CCCCNC(=O)c1c[nH]c(O)n1 (stereo not shown); fulfilled
CCCCCCCCCCCOC(=O)CCCCCN(CCCCCCCC(=O)OC(CCCCCCCC)CCCCCCCC)CC(O)CCCCNC(=O)c1[nH]ccc1O (stereo not shown); fulfilled
CCCCCCCCCCCOC(=O)CCCCCN(CCCCCCCC(=O)OC(CCCCCCCC)CCCCCCCC)CC(O)CCCCNC(=O)c1ccc[nH]1 (stereo not shown); fulfilled
CCCCCCCCCCCOC(=O)CCCCCN(CCCCCCCC(=O)OC(CCCCCCCC)CCCCCCCC)CC(O)CCCCNC(=O)c1cc[nH]c1 (stereo not shown); fulfilled
CCCCCCCCCCCOC(=O)CCCCCN(CCCCCCCC(=O)OC(CCCCCCCC)CCCCCCCC)CC(O)CCCCNC(=O)c1nccn1C (stereo not shown); fulfilled

Next item in the queue.
Qu. Is IL-6 Average for CCCCCCCCCCCOC(=O)CCCCCN(CCCCCCCC(=O)OC(CCCCCCCC)CCCCCCCC)CC(O)CCCCNC(=O)c1c(O)ccn1C (stereo not shown) at or above 0.9?
Ans. not fulfilled
